Where these numbers come from: PubChem BioAssay AID1224905

Target: Guanine nucleotide-binding protein G(i) subunit alpha-3 (Rattus norvegicus) (UniProt P08753)
Sequence (P08753 whole entry, looked up): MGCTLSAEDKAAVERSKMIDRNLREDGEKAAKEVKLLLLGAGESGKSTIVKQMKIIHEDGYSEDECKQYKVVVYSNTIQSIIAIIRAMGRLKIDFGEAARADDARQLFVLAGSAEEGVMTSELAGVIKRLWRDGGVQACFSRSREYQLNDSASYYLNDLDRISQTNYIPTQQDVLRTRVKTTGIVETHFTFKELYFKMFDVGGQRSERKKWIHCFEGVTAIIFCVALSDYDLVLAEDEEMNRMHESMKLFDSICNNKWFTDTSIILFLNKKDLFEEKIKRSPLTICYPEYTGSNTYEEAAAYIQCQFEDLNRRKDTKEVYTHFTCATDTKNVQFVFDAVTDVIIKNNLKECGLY
Test: inhibitors of GIV peptide binding to Galpha-i3, primary screen, biochemical, fluorescence polarization, FITC-GIV GBA peptide, rat Galphai3 (AID 1224905);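 note: lower values mean more displacement of the GIV peptide from Galpha-i3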
Details: 90 min, active compounds read low, scaled: aluminum fluoride 0%, vehicle 100%
Among all 210,000 compounds or so, about 880 (0.42%) were called active. The entries come from a sample that favours actives as a whole.
Quick list: percent of control (FP) per entry.
RESULT_TYPE: percent of control (FP) (%)

INSERT INTO assay_data (compound, display_unit, experimental_result) VALUES
  ('CCOC(=O)CSc1ncn[nH]1', '%', 102),
  ('Cn1c(=O)c(C#N)c(O)c2ccccc21', '%', 103),
  ('CSc1ccc(C2C=C(c3cccs3)Nc3ncnn32)cc1 (centres undefined)', '%', -22.3),
  ('O=C(CCn1nnc2cc(S(=O)(=O)N3CCCC3)ccc21)N1CCN(c2ccccn2)CC1', '%', 112),
  ('N#Cc1c(N2CCCCCC2)ncc2cc3ccccc3nc12', '%', -18.1),
  ('CCn1c(=O)c(=O)n(CC(=O)NCCC2=CCCCC2)c2cccnc21', '%', 101),
  ('O=C1c2ccccc2S(=O)(=O)N1CC(O)COc1ccc2ccccc2c1 (centres undefined)', '%', 103),
  ('COc1ccc(NC(=O)C2CCN(S(=O)(=O)c3cc4c(cc3C)NC(=O)CO4)CC2)cc1OC', '%', 98),
  ('S=C(Cc1ccc(CC(=S)N2CCOCC2)cc1)N1CCOCC1', '%', 105),
  ('Cc1nc2ccc(S(=O)(=O)NCC(=O)Nc3nccs3)cc2s1', '%', 103),
  ('CCN(CC)c1ccc2cc(-c3csc(-c4nc(-c5cc6ccc(N(CC)CC)cc6oc5=O)cs4)n3)c(=O)oc2c1', '%', 109),
  ('COc1ccc(NC(=O)c2nn(C)c3c2CSc2ccc(Cl)cc2-3)cc1OC', '%', 102),
  ('CC1CN(S(=O)(=O)c2ccc3c4c(cccc24)C(=O)N3)CC(C)O1 (centres undefined)', '%', 96.8),
  ('CCN(CC)c1ccc2oc(=O)c(C)nc2c1', '%', -40.7),
  ('N#CC(C#N)=C(C#N)/C=C/n1c2ccccc2c2ccccc21', '%', 69.8),
  ('CCN(Cc1ccccc1)C(=O)Cn1c(=O)n(CCc2ccccc2)c(=O)c2ccccc21', '%', 102),
  ('O=C(O)CCC(C(=O)O)N1C(=O)/C(=C\c2ccco2)SC1=S (centres undefined)', '%', 79.9),
  ('CNC(=O)CSc1nnc2[nH]c(=O)cc(C)n12', '%', 108),
  ('CN1C(=O)/C(=C/c2ccco2)SC1=Nc1cccc(C(=O)O)c1', '%', 103),
  ('COc1cc(-c2noc(-c3cc(-c4cc(C)ccc4C)n[nH]3)n2)ccc1OC(C)C', '%', 109),
  ('N#C/C(=C\c1ccc(-c2ccccc2)o1)C(=O)Nc1ccccc1', '%', 36.5),
  ('CCOC(=O)c1ccc(-c2ccc(/C=C(\C#N)C(=O)Nc3ccc(OCC)cc3)o2)cc1', '%', 102),
  ('COc1ccc(-n2ccc(=O)c(-c3nc(-c4ccc(F)c(Cl)c4)no3)n2)cc1', '%', 102),
  ('CC(C)CC(C(=O)Nc1ccc(Cl)cc1)N1C(=O)c2ccccc2C1=O (centres undefined)', '%', 108),
  ('N#CC1=C2Sc3ccccc3N2CC1=O', '%', -54.5),
  ('Cc1nn(CC(=O)NCCc2c[nH]c3ccccc23)c(=O)c2noc(C)c12', '%', 98.7),
  ('CC1=C(C(N)=O)C(c2ccc(Br)cc2)n2ncnc2N1 (centres undefined)', '%', 111),
  ('CCOC(=O)c1[nH]c(=O)[nH]c1CSc1nnc(SCc2[nH]c(=O)[nH]c2C(=O)OCC)s1', '%', 118),
  ('COC(=O)c1ccc(C2C(S(=O)(=O)c3ccccc3)=C(O)C(=O)N2c2cccc(C)c2)cc1 (centres undefined)', '%', 101),
  ('Cc1ccc(-n2nc3c(c2NC(=O)c2ccc(S(=O)(=O)N4CCCC4)cc2)CSC3)c(C)c1', '%', 102),
  ('NC(=O)c1nsc2c(=O)n(CC(=O)NCc3ccco3)cnc12', '%', 95.4),
  ('Cc1cc(N2CCN(c3ccccc3)CC2)n2c(nc3ccccc32)c1C#N', '%', 99.6),
  ('Cc1cc(Br)ccc1NC(=O)Cn1c2ccccc2c(=O)c2ccccc21', '%', 99.8),
  ('CC(=O)N[C@H]1[C@H](Oc2ccc(C)cc2)O[C@H](COC(C)=O)[C@@H](OC(C)=O)[C@@H]1OC(C)=O', '%', 131),
  ('COc1cccc(C2=CC(c3cccc(OC)c3)n3ncnc3N2)c1 (centres undefined)', '%', 96),
  ('CSc1ccc(C2C=C(c3ccc(Cl)s3)Nc3ncnn32)cc1 (centres undefined)', '%', -22.3),
  ('CCCCc1nnc2sc(-c3cccc(N(C)C)c3)nn12', '%', 97.3),
  ('Nc1nc(=O)n(C2OC(CO)C(O)C2O)cc1Br (centres undefined)', '%', 107),
  ('O=C(CSc1nnc(C2COc3ccccc3O2)n1-c1ccccc1)c1cccc([N+](=O)[O-])c1 (centres undefined)', '%', 99.2),
  ('CN1CCN(NC(=O)CCN2C(=O)/C(=C\c3ccco3)SC2=S)CC1', '%', 106),
  ('O=S(=O)(NCc1ccco1)c1ccc(Cl)cc1', '%', 101),
  ('CCN(CC)c1ccc2cc(C(=O)O)c(=O)oc2c1', '%', 115),
  ('Nc1ccc2c3c(cccc13)C(=O)NC2=O', '%', -7.99),
  ('O=c1[nH]c2c(c(=O)n1Cc1ccccc1)CCC2', '%', 110);

----------
Quick list: percent of control (FP) per entry.
Target: Guanine nucleotide-binding protein G(i) subunit alpha-3 (Rattus norvegicus) (UniProt P08753)
Test: inhibitors of GIV peptide binding to Galpha-i3, primary screen, biochemical, fluorescence polarization, FITC-GIV GBA peptide, rat Galphai3 (AID 1224905);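 note: lower values mean more displacement of the GIV peptide from Galpha-i3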
Details: 90 min, active compounds read low, scaled: aluminum fluoride 0%, vehicle 100%
The whole screen tested about 210,000 compounds, of which about 880 (0.42%) were called active. The sample as a whole holds a higher share of actives than the screen did.
RESULT_TYPE: percent of control (FP) (%)

INSERT INTO assay_data (compound, display_unit, experimental_result) VALUES
  ('CC1=NOC(=O)C1C(c1cccc(Br)c1)c1c(C)[nH]n(-c2ccccc2)c1=O (centres undefined)', '%', 48.2),
  ('COc1ccc(CNS(=O)(=O)c2ccc(F)c(C(=O)Nc3ccc(Br)cc3F)c2)cc1', '%', 111),
  ('Cc1cc(Br)ccc1N1C(=O)NC(=O)/C(=C/c2cn(CC(=O)N3CCOCC3)c3ccccc23)C1=O', '%', 103),
  ('COC(CNC(=O)c1cn(C)c2ccc(S(=O)(=O)N3CCCC3)cc2c1=O)OC', '%', 106),
  ('COc1ccc(C(=O)Oc2ccc(C(c3c(C)[nH]n(-c4ccccc4)c3=O)c3c(C)[nH]n(-c4ccccc4)c3=O)cc2)cc1', '%', 111),
  ('COCCNC(=O)Cn1cc(/C=C2\C(=O)NC(=O)N(C3CCCCC3)C2=O)c2ccccc21', '%', -38.3),
  ('COc1ccccc1N1C(=O)NC(=O)/C(=C/c2cn(C(C)=O)c3ccccc23)C1=O', '%', 118),
  ('CCOc1ccc(NC(=O)c2cn(C)c3c(c(C)nn3-c3ccc(F)cc3)c2=O)cc1', '%', 101),
  ('Cc1nn(C)c(C)c1CCN(C)C(=O)Nc1ccc(Br)cc1F', '%', 105);

----------
Molecular target: Guanine nucleotide-binding protein G(i) subunit alpha-3 (Rattus norvegicus)
Experiment: inhibitors of GIV peptide binding to Galpha-i3, primary screen, biochemical, fluorescence polarization, FITC-GIV GBA peptide, rat Galphai3 (AID 1224905);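 note: lower values mean more displacement of the GIV peptide from Galpha-i3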
Details: 90 min, active compounds read low, scaled: aluminum fluoride 0%, vehicle 100%
Out of some 210,000 compounds screened, about 880 (0.42%) were called active. What follows is part of a selection rich in actives, with near analogues and random picks from the rest.
Quick list: percent of control (FP) per entry.
RESULT_TYPE: percent of control (FP) (%)

INSERT INTO results (compound, result_type, experimental_result) VALUES
  ('CCCCN(CC)c1ncnc2ccc(C)cc12', 'percent of control (FP)', 101),
  ('CC(=O)Nn1nc2c(n1)C(=NNC(=O)c1ccccc1)c1nn(NC(C)=O)nc1C2=NNC(=O)c1ccccc1', 'percent of control (FP)', 99.9),
  ('CC(=O)Nc1ccc(NS(=O)(=O)c2cc(S(=O)(=O)Nc3ccc(NC(C)=O)cc3)c3cccc4c3c2NC4=O)cc1', 'percent of control (FP)', 108),
  ('CCSCCOC(=O)C1=C(C)N(C)C(=O)NC1c1ccccc1OCc1ccccc1 (stereo unspecified)', 'percent of control (FP)', 104),
  ('CCCCN1C(=O)C(C)(C(=O)N2CCN(C)CC2)Oc2cccnc21 (stereo unspecified)', 'percent of control (FP)', 101),
  ('O=S(=O)(c1cc(-c2noc(C3CC3)n2)cs1)N1CCN(c2ccc(Cl)cc2)CC1', 'percent of control (FP)', 104),
  ('COc1ccc(S(=O)(=O)N2CCC(NC(=O)NCc3ccc(C)cc3)CC2)cc1', 'percent of control (FP)', 98.6),
  ('COc1ccccc1-c1c(C(F)(F)F)oc2c(CN3CCN(C)CC3)c(O)ccc2c1=O', 'percent of control (FP)', 102),
  ('Cn1cccc1/C=C1\C(=O)NC(=S)N(c2ccccc2)C1=O', 'percent of control (FP)', 80.1),
  ('Cc1cc(C)nc(NS(=O)(=O)c2ccc(NC(=O)C(C)Oc3ccc(Cl)cc3Cl)cc2)n1 (stereo unspecified)', 'percent of control (FP)', 111),
  ('COc1ccc2oc(-c3noc(-c4ccnn4C)n3)c(C)c2c1', 'percent of control (FP)', 106),
  ('CC(=O)N(CCN(C)C)c1nc2cc3c(cc2s1)OCO3', 'percent of control (FP)', 100),
  ('O=C1Nc2ccccc2O/C1=C\c1ccc(C(=O)NCc2ccco2)cc1', 'percent of control (FP)', 103),
  ('c1csc(Nc2nc3cc4c(cc3s2)OCO4)n1', 'percent of control (FP)', -40.2),
  ('CCOC(=O)c1c(NC(=O)C(C)Sc2nnc(CNC(=O)c3cccs3)n2C2CCCCC2)sc2c1CCCC2 (stereo unspecified)', 'percent of control (FP)', 109),
  ('CC(C)/C=N/NC(=O)c1ccccc1', 'percent of control (FP)', 101),
  ('O=C(NN=c1c(=O)c2ccccc2c1=O)c1ccncc1', 'percent of control (FP)', 76.9),
  ('Cc1cc(C)n(CC(=O)NC2CCCC2)c(=O)c1S(=O)(=O)c1ccc(Cl)cc1', 'percent of control (FP)', 104),
  ('CC(C)c1ccc(NC(=O)c2ccc3c(O)c(S(=O)(=O)c4ccccc4)c(=O)[nH]c3c2)cc1', 'percent of control (FP)', 98.9),
  ('C#CCSc1c(CCCC)cnc2c1c(=O)n(C)c(=O)n2C', 'percent of control (FP)', 106),
  ('O=C(NCCc1c[nH]c2ccccc12)c1cc(=O)nc2sc(N3CCCC3)nn12', 'percent of control (FP)', 106);
